The measured values listed here are drawn from patent US8519188B2.

Test system: ARH-77/Dox doxorubicin-resistant myeloma cell line
test_method_notes: Cell proliferation (CellTiter 96 AQueous MTS/PMS), ARH-77/Dox
Type: cell-based
experimental_conditions: Homo sapiens, 72 hours of incubation, read-out: CI50 for various cell lines (nM) ARH-77/Dox
measure_name: IC50 (nM)
API: value field is a number in nM; no unit string.

Here are 4 compounds together with their reported answers.
compound="C#CC(=O)N(c1ccc(C(F)(F)F)cc1)C(C(=O)NCc1ccccc1)c1cccs1 (centres unmarked) [Compound 4]" target="ARH-77/Dox doxorubicin-resistant myeloma cell line" reported_measurement=25
compound="C#CC(=O)N(c1ccc(C(F)(F)F)cc1)C(C(=O)NC1CCCCC1)c1cccs1 (centres unmarked) [Compound 2]" target="ARH-77/Dox doxorubicin-resistant myeloma cell line" reported_measurement=6
compound="C#CC(=O)N(c1cccc(C(F)(F)F)c1)C(C(=O)NC1CCCCC1)c1cccs1 (centres unmarked) [Compound 3]" target="ARH-77/Dox doxorubicin-resistant myeloma cell line" reported_measurement=5
compound="C#CC(=O)N(c1cccc(C(F)(F)F)c1)C(C(=O)NCc1ccccc1)c1ccc(C)s1 (centres unmarked) [Compound 21]" target="ARH-77/Dox doxorubicin-resistant myeloma cell line" reported_measurement=6

query: Write down IC50 measured for item C#CC(=O)N(c1cccc(C(F)(F)F)c1)C(C(=O)NCc1ccccc1)c1cccs1 (centres unmarked) [Compound 1]
result: 12
